Measured Target: cyclooxygenase-1 (Mus musculus)
Construct: endogenous in cells; host or cells: primary mouse peritoneal macrophages (unstimulated)
Sequence (P22437 27-602): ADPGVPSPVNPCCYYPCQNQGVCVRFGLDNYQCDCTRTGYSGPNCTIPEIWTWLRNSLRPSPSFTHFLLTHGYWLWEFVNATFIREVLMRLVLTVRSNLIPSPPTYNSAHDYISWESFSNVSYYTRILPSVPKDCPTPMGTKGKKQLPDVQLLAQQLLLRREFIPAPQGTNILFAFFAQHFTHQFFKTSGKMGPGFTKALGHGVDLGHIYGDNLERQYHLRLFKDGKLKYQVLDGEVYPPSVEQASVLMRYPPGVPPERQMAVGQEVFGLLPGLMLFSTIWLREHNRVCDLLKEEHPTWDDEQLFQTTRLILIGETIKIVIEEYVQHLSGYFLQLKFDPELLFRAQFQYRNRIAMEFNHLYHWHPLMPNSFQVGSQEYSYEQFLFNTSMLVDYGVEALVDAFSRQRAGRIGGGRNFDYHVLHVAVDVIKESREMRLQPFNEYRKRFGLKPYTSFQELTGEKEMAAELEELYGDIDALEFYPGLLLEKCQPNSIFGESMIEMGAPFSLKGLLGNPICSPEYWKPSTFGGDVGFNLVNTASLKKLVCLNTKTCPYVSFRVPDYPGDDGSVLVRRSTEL
Procedure Summary: Cyclooxygenase-1 inhibition in mouse peritoneal macrophages (PGE2 ELISA)
Assay type: cell-based
Experimental Setup: 3 μM; mouse peritoneal macrophages
Provide the recorded Inhibitory effects of cyclooxygenase (COX), COX-1 for the entries that follow.
One number for each entry, in % inhibition.

Your task in this section: give Inhibitory effects of cyclooxygenase (COX), COX-1 for each listed record.
1. O=C(c1ccccc1)n1ccc2cc([N+](=O)[O-])ccc21 [Example 1, 1-benzoyl-5-nitro-1H-indole]
2. COc1ccc(Cn2ccc3cc([N+](=O)[O-])ccc32)cc1 [Example 4, 1-(4-methoxy-benzyl)-5-nitro-1H-indole]
3. O=[N+]([O-])c1ccc2c(ccn2Cc2ccccc2)c1 [Example 2, 1-benzyl-5-nitro-1H-indole]
4. CS(=O)(=O)Nc1ccc2c(ccn2Cc2ccccc2)c1 [Example 7]
5. Nc1ccc2c(ccn2C(=O)c2ccccc2)c1 [Example 6, 1-benzoyl-5-amino-1H-indole]

[33.2, 60.3, 56.7, 30.0, 52.3]

Please look at the items below and tell me Inhibitory effects of cyclooxygenase (COX), COX-1 for each one, in order.
1. CC(C)c1ccc(Cn2ccc3cc([N+](=O)[O-])ccc32)cc1 [Example 5, 1-(4-isopropyl-benzyl)-5-nitro-1H-indole]
2. CS(=O)(=O)Nc1ccc2c(ccn2Cc2ccc(F)cc2)c1 [Example 8]
3. CS(=O)(=O)Nc1ccc2c(ccn2C(=O)c2ccccc2)c1 [Example 9]
4. O=[N+]([O-])c1ccc2c(ccn2Cc2ccc(F)cc2)c1 [Example 3, 1-(4-fluoro-benzyl)-5-nitro-1H-indole]

1: 39.9; 2: 7.6; 3: 22.8; 4: 60.4

###

Measured Target: cyclooxygenase-2 (Mus musculus, UniProt Q05769)
Construct: Peritoneal fluid suspended with macrophages was extracted from a mouse peritoneal cavity; endogenous in cells; host or cells: primary mouse peritoneal macrophages, pretreated with 500 µM aspirin and stimulated with 10 µg/ml LPS
Procedure Summary: Cyclooxygenase-2 inhibition in aspirin-treated, LPS-stimulated mouse peritoneal macrophages (PGE2 ELISA)
Type: cell-based
Experimental Setup: 300 nM; LPS-stimulated mouse peritoneal macrophages
Kindly supply the reported Inhibitory effects of cyclooxygenase (COX), COX-2 values for the records listed here.
Numbers only, in % inhibition.

Please report the recorded Inhibitory effects of cyclooxygenase (COX), COX-2 for `O=[N+]([O-])c1ccc2c(ccn2Cc2ccc(F)cc2)c1` .
70.2

Please state, for each entry, its recorded Inhibitory effects of cyclooxygenase (COX), COX-2.
1. CS(=O)(=O)Nc1ccc2c(ccn2Cc2ccccc2)c1
2. Nc1ccc2c(ccn2C(=O)c2ccccc2)c1
3. CC(C)c1ccc(Cn2ccc3cc([N+](=O)[O-])ccc32)cc1
4. COc1ccc(Cn2ccc3cc([N+](=O)[O-])ccc32)cc1
5. O=[N+]([O-])c1ccc2c(ccn2Cc2ccccc2)c1
6. CS(=O)(=O)Nc1ccc2c(ccn2C(=O)c2ccccc2)c1
7. CS(=O)(=O)Nc1ccc2c(ccn2Cc2ccc(F)cc2)c1

76.8
54.9
61.4
81.5
22.0
30.1
29.6

###

Measured Target: cyclooxygenase-2 (Mus musculus, UniProt Q05769)
Construct: Peritoneal fluid suspended with macrophages was extracted from a mouse peritoneal cavity; endogenous in cells; host or cells: primary mouse peritoneal macrophages, pretreated with 500 µM aspirin and stimulated with 10 µg/ml LPS
Sequence (Q05769 18-604): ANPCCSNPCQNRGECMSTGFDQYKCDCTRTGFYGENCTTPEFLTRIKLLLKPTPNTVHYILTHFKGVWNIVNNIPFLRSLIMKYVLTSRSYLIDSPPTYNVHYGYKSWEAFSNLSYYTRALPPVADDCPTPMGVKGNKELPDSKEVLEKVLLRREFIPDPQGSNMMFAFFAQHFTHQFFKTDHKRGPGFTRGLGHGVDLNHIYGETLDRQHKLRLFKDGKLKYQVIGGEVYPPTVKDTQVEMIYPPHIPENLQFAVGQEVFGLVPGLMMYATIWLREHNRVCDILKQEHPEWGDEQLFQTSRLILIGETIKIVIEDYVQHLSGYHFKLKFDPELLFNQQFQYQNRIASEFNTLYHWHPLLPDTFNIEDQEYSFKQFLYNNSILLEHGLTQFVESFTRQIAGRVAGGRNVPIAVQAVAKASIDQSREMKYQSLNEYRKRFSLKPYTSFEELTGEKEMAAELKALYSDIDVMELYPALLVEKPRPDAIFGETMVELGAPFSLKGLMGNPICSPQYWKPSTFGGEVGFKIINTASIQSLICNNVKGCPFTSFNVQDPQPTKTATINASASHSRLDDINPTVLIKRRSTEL
Procedure Summary: Cyclooxygenase-2 inhibition in aspirin-treated, LPS-stimulated mouse peritoneal macrophages (PGE2 ELISA)
Assay type: cell-based
Experimental Setup: 100 nM; LPS-stimulated mouse peritoneal macrophages
Exercise: for every item that follows, state its recorded Inhibitory effects of cyclooxygenase (COX), COX-2.
Answers are plain numbers, in % inhibition.

Sample answers from the record:
Find the measured Inhibitory effects of cyclooxygenase (COX), COX-2: item CS(=O)(=O)Nc1ccc2c(ccn2Cc2ccccc2)c1 [Example 7] , target or system cyclooxygenase-2 (Mus musculus, UniProt Q05769).
70.6

What Inhibitory effects of cyclooxygenase (COX), COX-2 appears in the records for this compound with cyclooxygenase-2 (Mus musculus, UniProt Q05769)? O=[N+]([O-])c1ccc2c(ccn2Cc2ccc(F)cc2)c1 [Example 3, 1-(4-fluoro-benzyl)-5-nitro-1H-indole]
58.8

# per-item lookup of Inhibitory effects of cyclooxygenase (COX), COX-2; items listed below
1. CS(=O)(=O)Nc1ccc2c(ccn2Cc2ccc(F)cc2)c1 [Example 8]
2. Nc1ccc2c(ccn2C(=O)c2ccccc2)c1 [Example 6, 1-benzoyl-5-amino-1H-indole]
3. COc1ccc(Cn2ccc3cc([N+](=O)[O-])ccc32)cc1 [Example 4, 1-(4-methoxy-benzyl)-5-nitro-1H-indole]

28.6
46.6
69.9

Give Inhibitory effects of cyclooxygenase (COX), COX-2 for all compounds that follow.
1. O=[N+]([O-])c1ccc2c(ccn2Cc2ccccc2)c1 [Example 2, 1-benzyl-5-nitro-1H-indole]
2. CS(=O)(=O)Nc1ccc2c(ccn2C(=O)c2ccccc2)c1 [Example 9]
3. CC(C)c1ccc(Cn2ccc3cc([N+](=O)[O-])ccc32)cc1 [Example 5, 1-(4-isopropyl-benzyl)-5-nitro-1H-indole]

20.7
25.5
55.4
